Values from PubChem BioAssay

This listing pairs compounds with measured differentiation response.
Assay: AML differentiation inducers, ER-HoxA9 marrow cells – cell-based, GFP/MAC1 double positive, flow cytometry, validation set, primary screen (AID 588685);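 also: compound exposure lasts four days before antibody staining and flow analysis; 0% = DMSO wells and 100% = 5 µM fulvestrant positive control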
Settings: stronger effect = higher value, normalized: vehicle 0, fulvestrant 100

- compound: "COC(=O)c1ccc(OCCCCN2CC(C)OC(C)C2)cc1 (stereo unspecified)"
  differentiation response [%]: -11.9
- compound: "COc1ccccc1NC(=O)C12CCC(C)(C(=O)C1)C2(C)C (stereo unspecified)"
  differentiation response [%]: -4
- compound: "CCOc1ccc2nc(N/C(N)=N/S(C)(=O)=O)nc(C)c2c1"
  differentiation response [%]: 3.28
- compound: "O=C1C(O)CC2c3ccccc3CC3(CCCC3)N12 (stereo unspecified)"
  differentiation response [%]: -18.4
- compound: "C/C(=N\\NC(=O)c1ccccc1[N+](=O)[O-])c1ccc(Br)s1"
  differentiation response [%]: -4.57
- compound: "Cc1cc(/C=N/O)c(C)n1-c1ccc(Br)cc1"
  differentiation response [%]: -6.03
- compound: "Cc1ccc(CN2CCN(Cc3cn[nH]c3C3CCCCC3)CC2CCO)cc1 (stereo unspecified)"
  differentiation response [%]: -5.97
- compound: "N/C(Cc1ccc(Cl)cc1Cl)=N\\OC(=O)c1ccc(Br)o1"
  differentiation response [%]: 2.4
- compound: "CC(C)COC(=O)C1C(=O)CC(C)(O)C(C(=O)OCC(C)C)C1c1cccnc1 (stereo unspecified)"
  differentiation response [%]: -3.28
- compound: "COc1c(C=O)c(CCN(C)C(=O)c2ccc(F)cc2)cc2c1OCO2"
  differentiation response [%]: 19.6
- compound: "CC1(C)C(C=C(Cl)Cl)C1C(=O)N1CCN(Cc2ccccc2)CC1 (stereo unspecified)"
  differentiation response [%]: -9.53

###

This listing pairs compounds with measured inhibition.
Target: AP-2 complex subunit beta (Homo sapiens) (UniProt P63010)
Sequence (P63010 whole entry, looked up, one chain of several): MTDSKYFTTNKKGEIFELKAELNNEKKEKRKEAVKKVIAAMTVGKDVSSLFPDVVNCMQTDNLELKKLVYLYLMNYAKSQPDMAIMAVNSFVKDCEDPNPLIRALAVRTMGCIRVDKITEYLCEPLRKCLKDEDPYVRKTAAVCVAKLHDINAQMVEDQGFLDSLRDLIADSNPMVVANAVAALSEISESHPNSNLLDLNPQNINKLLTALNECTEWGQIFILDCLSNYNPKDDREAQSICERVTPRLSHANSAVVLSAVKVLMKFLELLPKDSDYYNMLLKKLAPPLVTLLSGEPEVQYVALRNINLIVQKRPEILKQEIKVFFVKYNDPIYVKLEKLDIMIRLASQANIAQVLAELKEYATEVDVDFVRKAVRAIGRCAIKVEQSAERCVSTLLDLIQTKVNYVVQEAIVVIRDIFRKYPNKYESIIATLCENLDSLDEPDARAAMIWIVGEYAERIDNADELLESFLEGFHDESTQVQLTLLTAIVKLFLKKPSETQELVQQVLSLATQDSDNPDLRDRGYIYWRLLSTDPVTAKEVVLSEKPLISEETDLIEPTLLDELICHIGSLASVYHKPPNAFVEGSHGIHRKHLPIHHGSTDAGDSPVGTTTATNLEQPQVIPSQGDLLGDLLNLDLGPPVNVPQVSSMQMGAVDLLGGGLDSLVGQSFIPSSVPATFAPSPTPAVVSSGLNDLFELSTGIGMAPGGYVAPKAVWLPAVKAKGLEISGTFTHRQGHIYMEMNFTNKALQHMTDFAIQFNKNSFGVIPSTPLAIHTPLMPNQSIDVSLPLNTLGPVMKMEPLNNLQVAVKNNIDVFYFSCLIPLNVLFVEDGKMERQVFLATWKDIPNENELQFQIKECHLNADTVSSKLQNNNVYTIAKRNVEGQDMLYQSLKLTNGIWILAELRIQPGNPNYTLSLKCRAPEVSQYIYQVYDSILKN
Assay: beta-arrestin/AP2 interaction blockers – biochemical, validation set, GST-AP2 beads, flow cytometry, pilot screen (AID 504541);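 also: AP2 carries R879A mutation and is captured from E. coli lysate; bead-bound FITC arrestin peptide fluorescence measuring arrestin peptide binding to AP2; 0% = DMSO wells and 100% = excess unlabeled arrestin peptide control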
Conditions: FITC arrestin peptide, at 10 µM, stronger effect = higher value, AP2 beta2 appendage fragment, R879A mutant

- compound: "O=C(NCCc1ccccc1)C1CCN(C2CCN(Cc3ccco3)CC2)CC1"
  inhibition / %: -2.11
- compound: "O=C(CN1C(=O)c2ccccc2C1=O)Nc1cccc([N+](=O)[O-])c1"
  inhibition / %: 35
- compound: "c1cc(-c2ccncc2)ccn1"
  inhibition / %: 23.8
- compound: "C[C@@H]1C[C@H](Nc2ccccc2)c2ccccc2N1C(=O)c1cccnc1"
  inhibition / %: 19.6
- compound: "N/C(Cc1ccc(Cl)cc1Cl)=N\\OC(=O)c1ccc(Br)o1"
  inhibition / %: -11
- compound: "COc1ccc(-c2[nH]ncc2CN(C)C(C)c2ccon2)c(OC)c1 (stereo unspecified)"
  inhibition / %: 8

###

Experiment: AML differentiation inducers, ER-HoxA9 marrow cells – cell-based, GFP/MAC1 double positive, flow cytometry, validation set, primary screen (AID 588685);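 also: compound exposure lasts four days before antibody staining and flow analysis; 0% = DMSO wells and 100% = 5 µM fulvestrant positive control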
Conditions: normalized: vehicle 0, fulvestrant 100
Active and inactive are the calls of the source.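 How the source made its calls: active means differentiation response of at least 50%, scaled between solvent and reference control, from cells with both markers; inactive means the rest.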
Outcome codes: active, inactive

- compound: "Cn1c(=O)c2c(ncn2CCO)n(C)c1=O"
  cat: "inactive"
- compound: "COc1ccc(CN2CCCC(C(=O)c3ccc(Cl)cc3)C2)cc1Cn1cccn1 (stereo not drawn)"
  cat: "inactive"
- compound: "CC12CCCCN1CCCc1c2[nH]c2ccccc12 (stereo not drawn)"
  cat: "inactive"
- compound: "CC12CCC(C(=O)N3CCc4ccccc43)(CC1=O)C2(C)C (stereo not drawn)"
  cat: "inactive"
- compound: "CC1CCN(CCOCCOc2ccccc2Br)CC1"
  cat: "inactive"
- compound: "c1cc(-c2ccncc2)ccn1"
  cat: "active"
- compound: "COc1ccc(C(=O)O)cc1F"
  cat: "inactive"
- compound: "O=C1CCCN1C(=O)CCC(=O)N1CCCC1=O"
  cat: "inactive"
- compound: "O=C(O)[C@@H](O)c1ccccc1"
  cat: "inactive"
- compound: "COc1ccc(S(N)(=O)=O)cc1C(N)=O"
  cat: "inactive"
- compound: "CC1(C)CC(O)(CNCc2ccc3c(c2)OCO3)CCO1 (stereo not drawn)"
  cat: "inactive"
- compound: "CC(C)=CCC(C)(C)/C=N/NC(N)=O"
  cat: "inactive"
- compound: "CC1(C)Oc2ccc(C#N)cc2[C@@H](N2CCCC2=O)[C@@H]1O"
  cat: "inactive"
